# ASSAY_TARGET: HIV protease (Human immunodeficiency virus type 1 group M subtype B)
# EXPERIMENTAL_PROTOCOL: Enzymatic (fluorometric FRET) assay for determining the inhibition constant (Ki)
# Type: biochemical
# RUN_CONDITIONS: Ki, EDANS/DABCYL substrate, equation of Henderson
# note: exactly 6 nM is not below, so it is Not fulfilled; use Fulfilled for Ki strictly under it

cpd_smiles=COc1cccc(CN(Cc2ccc3c(c2)OCO3)C(=S)NCCCC[C@@H](CO)N(CCC(C)C)S(=O)(=O)c2ccc(N)cc2)c1 assay_target="HIV protease (Human immunodeficiency virus type 1 group M subtype B)" label=Fulfilled
cpd_smiles=CC(C)CCN([C@H](CO)CCCCNC(=O)N(Cc1ccccc1)Cc1ccccc1)S(=O)(=O)c1ccc(N)cc1 assay_target="HIV protease (Human immunodeficiency virus type 1 group M subtype B)" label=Fulfilled
cpd_smiles=CC(C)CCN([C@H](CO)CCCCNC(=O)N(Cc1ccc2c(c1)OCO2)Cc1cccs1)S(=O)(=O)c1ccc(N)cc1 assay_target="HIV protease (Human immunodeficiency virus type 1 group M subtype B)" label=Fulfilled

Req: Bench note: check whether `CC(C)CCN([C@H](CO)CCCCNC(=O)N(Cc1ccncc1)Cc1ccc2c(c1)OCO2)S(=O)(=O)c1ccc(N)cc1` shows Ki below 6 nM
Resp: Not fulfilled

Req: # strict comparison: is reported Ki < 6 nM? input = `Cc1ccc(S(=O)(=O)N(CC(C)C)[C@@H](CCCCNC(=O)NCCc2ccccc2)C(=O)O)cc1`
Resp: Not fulfilled
